All figures here come from patent US5830902A.

Listed compounds paired with reported pIC50
# test system: human squalene synthase (Homo sapiens, UniProt P37268)
# Construct: endogenous in cells; host or cells: HepG2 human hepatoma cells (microsomal fraction)
# Sequence (P37268 whole entry): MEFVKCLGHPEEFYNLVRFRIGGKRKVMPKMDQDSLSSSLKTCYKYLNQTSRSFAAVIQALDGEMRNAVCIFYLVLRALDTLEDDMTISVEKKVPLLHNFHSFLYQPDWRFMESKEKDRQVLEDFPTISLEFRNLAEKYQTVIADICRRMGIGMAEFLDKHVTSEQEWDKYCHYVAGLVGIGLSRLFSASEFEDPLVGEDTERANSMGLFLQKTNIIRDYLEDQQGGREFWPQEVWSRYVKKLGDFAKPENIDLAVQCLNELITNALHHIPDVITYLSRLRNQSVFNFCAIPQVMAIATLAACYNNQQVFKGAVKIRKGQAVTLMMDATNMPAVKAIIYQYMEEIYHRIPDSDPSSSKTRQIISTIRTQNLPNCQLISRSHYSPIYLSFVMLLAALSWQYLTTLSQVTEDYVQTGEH
# assay remarks: Test on human squalene synthase inhibition (HepG2 microsomal fraction)
# Assay type: biochemical
Kindly note that pIC50 refers to -log10 of the concentration in mol/L and answer with the value alone.

Query block: What does the data say about its pIC50? Entry: CN1c2ccccc2Sc2cc(COC3CN4CCC3CC4)ccc21.Cl (centres unmarked) [Example 17, hydrochloride]
Result block: 7.07

Continuing:
Query block: Please report the recorded pIC50 for C(/COc1ccc2c(c1)[nH]c1ccccc12)=C1/CN2CCC1CC2.Cl [Example 2, hydrochloride] .
Result block: 7.23
